- Measured On: Human GLP-1 receptor (human, UniProt P43220)
- Protocol Details: cell-based or functional assay
*1 amine or outer side, *2 acyl side, *3 side chain or, on linkers, in order; H or OH if unused. Bridges are numbered along the chain shown (N, C = ends). Where no end group is shown, it is not given here. Side-chain parts run from the residue outwards. [ ]: non-standard residue; d: D form. The star is where a group is joined. γGlu = O=C(O)[C@H](CCC(=O)[*:2])N[*:1]; Stearoyl = CCCCCCCCCCCCCCCCCC(=O)*; AEEA = NCCOCCOCC(=O)O; Aib = CC(C)(N)C(=O)O
Endpoint Name: EC50(pM), CRE-driven luciferase activity

Sample answers from the record:
- Binder: "HXQGTFTSDXSKYLDXRRAQDFVQWLMNTK (Aib at positions 2 and 16; Z at position 10 = Lys([(2-(2-(2-aminoethoxy)ethoxy)acetoyl)2]-[gammaglutamicacid]-[17-carboxyheptadecanoyl])) [Compound 43]"
  Observed Value: "> 1000 pM"
- Binder: "H[Aib]QGTFTSDK([AEEA-AEEA-γGlu-Stearoyl])SKYLDDRRAKDFVQWLMNTK (lactam 16-20) [Compound 26]"
  Observed Value: "< 10 pM"
- Binder: "HXQGTFTSDXSKYLDERRAKDFVQWLMNTK (not fully specified; Aib at position 2; Z at position 10 = Lys([(2-(2-(2-aminoethoxy)ethoxy)acetoyl)2]-[gamma glutamicacid]-[octadecanoyl]); a ring formed between E and K (positions 16 and 20) via 4-aminobenzoyl cross-link) [Compound 34]"
  Observed Value: "< 10 pM"
- Binder: "HXQGTFTSDXSKYLDXRRAQDFVQWLMNTK (Aib at positions 2 and 16; Z at position 10 = Lys([(2-(2-(2-aminoethoxy)ethoxy)acetoyl)2]-[gamma glutamicacid]-[octadecanoyl])) [Compound 3]"
  Observed Value: "< 10 pM"
- Binder: "HXQGTFTSDXSKYLDXRRAQDFVQWLMNTKRNRNNIA (Aib at positions 2 and 16; Z at position 10 = Lys([(2-(2-(2-aminoethoxy)ethoxy)acetoyl)2]-[gamma glutamicacid]-[octadecanoyl])) [Compound 7]"
  Observed Value: "< 10 pM"

Sample HXQGTFTSDXSKYLDERRAKDFVQWLMNTK (Aib at position 2; Z at position 10 = Lys([(2-(2-(2-aminoethoxy)ethoxy)acetoyl)2]-[gamma glutamicacid]-[octadecanoyl]); lactam ring formed between E and K (positions 16 and 20)) [Compound 14] ; EC50(pM), CRE-driven luciferase activity observed: < 10 pM
